experiment: soluble fraction after stress (log2 fold change); higher = more stays soluble; pooled small domains, quantitative proteomics; details: stress: 75 degC;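 also: 20 min heating vs room temperature control held 20 min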
Each record here notes measured soluble fraction (log2).
# print the numeric value only

# count of solved cases: 2
sequence_code=HMQPAGEGAILRYLSSGAVKGIGPVMAREIVRRFGTDTFRVMEQEPEKLLKVKGITEQRLQTIMESYQD readout_kind="soluble fraction (log2)" reported_measurement=-0.198
sequence_code=HMTTMNSADLIKELEKAGWTLRGVKGSHHIYTHPARGGHLSVPHPKKDLGAGLARQLRKQAGL readout_kind="soluble fraction (log2)" reported_measurement=-0.032

# soluble fraction (log2) of HMLDEPPVSQTLTTYDREHMALYLRLLDSARDGADWREAVQILFGLDPTRDPLRSRHVHDTHLARARWM = -0.0384

Reported soluble fraction (log2) ( HMDPPISNDARNAINAKLMKFSELHPNEMKKLVEAYKKEFKVSKISPITLARQGEFLSHAISKIDDT ) = -0.0671

For reference, reported soluble fraction (log2) for HMSSQVFLGQKNSIAKYDLNENKPIWTKEIKGTPLILSTWKDMLLIQIQTWVSYTHMLVKQENGQTVWE stands at 0.288

* * *

experiment: soluble fraction after stress (log2 fold change); higher = more stays soluble; pooled small domains, quantitative proteomics; details: stress: 75 degC
Class t: soluble fraction (log2) at least -1. Class f: soluble fraction (log2) below -1.

These solved cases illustrate the format of a correct answer.
sequence_code=HMAMKFQDIVRQKRKELGLTQEQAARRLGVSPAAVSKWESGQSLPDTPLFAPLARLLHTDLNTLLSFE answer_label=f
sequence_code=HMRSTIYEFTVPPGQLESIRLDVYITSFVENATRSKVQEAIKQGYVWVNGKHEKASYTMLPGDKIYIELPI answer_label=f
sequence_code=HMFPASQPVPTDLNQIVRAGLEVFSGRLEGIDVRVSLEPELPRVNVDPEHFKRIVVNLVDNAAEAMQNS answer_label=t

# input Tell me whether soluble fraction (log2) is at least -1 here: HMKWYDSDKGFGFLSQEEGEDVYVRSSALPAGVEGLKAGQRVEFGIASGRRGPQALSL
# output t

# input Please tell me: is the sequence HMEWGEADFVRLDEALATLRTLSPRQAEVVDLRFFSELSLEETAATLGLSLATVKRDWSVARLYLQRALS at or over -1 in terms of soluble fraction (log2)?
# output t

# input Given HMSVTRELMLVKVKVTPEQRAGVSAIVDIFRANIIDVGKESMIIELTGNKSKLEAFIDLLDGYEILELART , state whether its soluble fraction (log2) is at least -1.
# output f

# input Please indicate if the recorded soluble fraction (log2) for HMAGPVLTPEEAEVLRILADHGEMTVDNISAEGKMSAAVVLRGLGVLSAYGLVAPGGPGRWRSE meets or exceeds -1.
# output t

# input Item HMETQAGELQDAIRDAIAALPPRTREVFLMSRERNLRYGEIAEALGISVKAVEANMSRALRQLREKLSPFL with soluble fraction (log2) of -1 or above?
# output f

# input Textbook exercise: given the entry HMLAMHVVESVGGAEQFTKLQNFAKTQNADYQKMWNDTMNSGNVLAIKTMLSGIQSDMIAVQ , state whether its soluble fraction (log2) is greater than or equal to -1.
# output t

# input Hi team, for HMYFDDEELDTYKGRASNAYSPDETAQFEEVMTTMRPDEVAAWLRSLQLRGINLPDELKDEAIMLVE , is the recorded soluble fraction (log2) at or above -1?
# output t

* * *

Measured soluble fraction (log2) accompanies every entry in the list below.
assay: soluble fraction after stress (log2 fold change); higher = more stays soluble; pooled small domains, quantitative proteomics; conditions: stress: 75 degC

sequence_code=HMEDESSIERYLGSGAIKGIGPSLAARIVKKFGKDTFRIIEQEPERLAEIKGISERKAMEISTLMEEK readout_kind="soluble fraction (log2)" reported_measurement=-0.056
sequence_code=HMVIDFYDPQTKVIHEIKKSSAKEEAHVWQVKYYIYLFEKEEIMGVKGVLEYPLLREIVSVNF readout_kind="soluble fraction (log2)" reported_measurement=0.19
sequence_code=HMVVTRVKAIDVVNIRKSDSETADKLGKAAVGDEFDLLEKKGNGWSKISYEGGEAYIKSEFLEPSE readout_kind="soluble fraction (log2)" reported_measurement=0.602

For HMSELADDPVYTALEKAADKAGLQLTVRILNDLADAVLKRGKKKLTAAQAGKVIARAESELAKSRID the sequence record lists soluble fraction (log2) as 0.00292

Short answer for HMEKAISSLTLEEAKKRLEMVRSEKDASLQIYKETGSETARVTAENYGKEENSLLLHISEMSNIV : soluble fraction (log2) was 0.425

According to the records, this sequence HMVNYKEILRLAHEGYSQRQIATNIGNSRNTVSEVLDAAKAANIAWPPEETVTNEQLGAILFPNRH displays soluble fraction (log2) of 0.349

* * *

assay: soluble fraction after stress (log2 fold change); higher = more stays soluble; pooled small domains, quantitative proteomics; conditions: stress: 75 degC
Short version: soluble fraction (log2) at least -0.4 is Satisfied, less is Not satisfied.

sequence_code=HMTYSEEEIERDLYVRGTLYQIGDLVENKIDGTSGEIVRRGPNYVQYSDGENFYKAFLHSIQEV answer_label=Satisfied
sequence_code=HMSGTMYATAEVNVRSTYSSDGTIYGTLSKGTAVEITGTTDNGWVRVKYNGTTAYVYADYLSWKAP answer_label="Not satisfied"
sequence_code=HMTKEEFLYELKKELSALDSAEATAYNLRYYSDYIDAEIAKGRSEQEVLDELGNPRWLVNSIKESG answer_label=Satisfied
sequence_code=HMVSLPSPLAGKVVSLTVQAGQEVKEGDEIMVLEAMKMNTQVHAPSSGRILALRVQPGDQVEEGQTLVTMG answer_label=Satisfied
sequence_code=HMEKVLPFEFERKFKTNHTAWDFFSNQAPPSYRKTVIHWILSAKQEITRISRLEKLIAASEQQKRI answer_label="Not satisfied"

# input Tell me whether soluble fraction (log2) is at least -0.4 here: HMSRYLLPYAFARTQQVLLEEKSGELTLWMHSGSNLGGISEVTRKYAVQHVTHEPMDALLNRISSAYAN
# output Not satisfied

* * *

experiment: soluble fraction after stress (log2 fold change); higher = more stays soluble; pooled small domains, quantitative proteomics; conditions: stress: 75 degC
Attribute: soluble fraction (log2)

sequence_code=HMGIRAFDPEAFDERLKEFFSMIAPYKKLDTRSLQPHFPHHAKEVAERIRQLAEAGKIKVDGFYISEL reported_measurement=-0.587
sequence_code=HMDSATDRVALKELLNTLSARERTIITLRYFSDQTQTQVAKSLGISQVQVSRLENAILQRLRKL reported_measurement=-2.08
sequence_code=HMNPMRYLVVPSQETETWKEYLVSKEWLERKYRIETEGDNRAIPLSNLFPKIVPIELSNLEIIEKEAFS reported_measurement=-0.694
sequence_code=HMQLTPAQHAILAHALEHSDGKIVWFPDNIKGGARKKVLDGLLNRALITTDGTDWFVAAEGYDAMGR reported_measurement=-0.386
sequence_code=HMKRRSLQVGDIVQVRSLNVKGEVVSIGKNEVVVAVGRLQMRAGFDDLDFKERPKEEREVESV reported_measurement=-0.467
sequence_code=HMSEQVTMIDVEGKTETEAKKALEDLGLKVEITYESADAAAGTVIGQDVKAGSTVSEGSRVTLTVSGQ reported_measurement=0.528
sequence_code=HMDIMLLLYKNIKKRRLEIGMSQEELAQKTGYTSRSSIAKIEKGEVDLQLSKIKLFANALRVSQSELMG reported_measurement=-3.49
sequence_code=HMGISQAQAMQALRKLIEEEDKHTPLSDQTLMERLKAAGIPLARRTIAKYRESLGIPSAAQRK reported_measurement=-0.266

We next turn to a different sequence, shown below.
Form field soluble fraction (log2), entry HMDSNFNYELVGFRLDDMGLNSSVIVKRNNQEFVIQKGDLLENKYLLNSVTKKNINFSYLGKNYQI : -1.07

* * *

assay: soluble fraction after stress (log2 fold change); higher = more stays soluble; pooled small domains, quantitative proteomics; settings: stress: 75 degC
# thresholds on soluble fraction (log2) define classes: Low = under -0.4, Medium = from -0.4 up to 0.2, High = 0.2 and over

Some solved cases for reference:
sequence_code=HMHAPIAELKKVFKEEFADQEVTVRQLAGSVLLSGNVKTAELRENLESVAKQFFPRVINNLKLI answer_label=Low
sequence_code=HMTTETGTVKWFNEGKGFGFIAPDGGGKDLFAHFKEIQGSGFKTLTENQRVQFEVTQGQKGPQASNIRTL answer_label=High

# input Category of HMSDFDPTLILDLIKGSGEALTKREIARALGIKGGDKRIELKSHLKSMEAEGVIVKQAGGAYSVP , please.
# output Medium

# input Place this sequence in its band: HMVVVMEKNASSAEIEQVQERLRQAGFKIHLSQGVERTIIGAIGDRSQVDLGFLEALPGVEKVVPIMK
# output Medium

# input Category of HMTIPRLPFAFAKRFGIVLDNRPSGFVAAHKEGLLPHVLLEVQRFLGDAYTLEVVSDDDFERILGQVYQT , please.
# output Low

# input For this sequence, which bin applies? HMNSVKSPMPGTILGLKVSVGDTVKVGDELLVLESMKMENMINSPIDGTVSKILISEGDSVQHGQELII
# output High

# input Kindly identify the class of HMAPSPEGAAILRESVESVARDQVDRVALTMTARGYTTAEIAAALMVDRSTISRRLYAMRDRYHAQQDNAQ .
# output Low

# input Dear colleague, I would appreciate it if you could identify the bin for HMKIDLPIWLNKKAWEAWVEYKKERKQKLTPSIIKFQLRILEKNKEDHPEIIRNSITNGWTGLFPLK and reply at your convenience.
# output Low

# input Exercise: read the entry HMNLSSETLSEMEARIGQMGVVELQDRRAYLLQEQEGTQNPSRLKEIADELSAIQKALVALV and state which class it falls under.
# output High

# input # bin lookup: classify HMGQYSTTLDKIENSLFGFTYSNEAENTRINRIENKVYGKTSTSQTSTRIAKLKKDLSVDEMG by its soluble fraction (log2)
# output Medium

# input Please indicate the class for HMEQSGDELKTWVDQAIAAYPEKVKEYQQGKKGLLALFIGEVMKRSKGTADPKKVNQLVTEALS based on its soluble fraction (log2).
# output Medium
